protocol-details: Plasma pharmacokinetics of triterpenoids in rats after oral Jumihaidokuto (LC-MS/MS)
Assay type: in vivo
stated-conditions: male, Sprague-Dawley, plasma; rat; single oral Jumihaidokuto 2 g/kg; converted from 116.1 ng/mL
attribute-measured: Cmax

Input line: Return Cmax for the following molecule: C=C(CC[C@@H](C(=O)O)[C@H]1[C@H](O)C[C@@]2(C)C3=C(CC[C@]12C)[C@@]1(C)CC[C@H](O)C(C)(C)[C@@H]1CC3)C(C)C
Output line: 238 nM

* * *

tested-on: recombinant human KLK5 (Homo sapiens, UniProt Q9Y337)
Construct: purchased R & D Systems Inc
Sequence (Q9Y337 23-293): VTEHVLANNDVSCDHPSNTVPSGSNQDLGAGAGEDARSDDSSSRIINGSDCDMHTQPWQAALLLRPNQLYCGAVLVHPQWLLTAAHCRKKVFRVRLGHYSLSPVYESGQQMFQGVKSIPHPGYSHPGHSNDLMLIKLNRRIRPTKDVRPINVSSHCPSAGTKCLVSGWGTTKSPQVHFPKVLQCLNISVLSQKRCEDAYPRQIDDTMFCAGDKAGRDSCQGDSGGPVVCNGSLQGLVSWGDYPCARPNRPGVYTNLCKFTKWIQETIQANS
protocol-details: KLK5 enzymatic assay (Boc-V-P-R-AMC fluorogenic substrate)
Format: biochemical
stated-conditions: selectivity experiment of Table 2; 0.78-100 μM; linear interpolation; read-out: IC50 Kallikrein 5
attribute-measured: IC50 (µM)
Kindly answer with a numeric value in µM, unit omitted.

Input line: Return IC50 for the following compound: C=C(CC[C@@H](C(=O)O)[C@H]1[C@H](O)C[C@@]2(C)C3=C(CC[C@]12C)[C@@]1(C)CC[C@H](O)C(C)(C)[C@@H]1CC3)C(C)C [Tumulosic acid]
Output line: 14.8
